assay: gradient 5% acetonitrile 3 min, to 50% in 2 min, to 85% in 15 min, held 3 min, 100 µL/min; details: column: Zorbax Extend-C18 2.1 x 50 mm; eluents: water / acetonitrile, 0.1% formic acid
measured_attribute: RP-LC retention time (s)

Value lookup for RP-LC retention time; key = O=C1[C@H]2CN(Cc3ccc(F)cc3Cl)C[C@H]2C(=O)N1Cc1ccc2c(c1)OCO2 992

Repeat for the following compound: C=Cc1ccc(CN2N=C(C(=O)N3CCOCC3)S(=O)(=O)c3ccc(Cl)cc32)cc1 951

Repeat for the following compound: COCCNC(=O)C(C)n1nc(C)c2c(C)n(-c3ccccc3)nc2c1=O (stereo not given) 695

Repeat for the following compound: Clc1cc(N2CCSCC2)ncn1 763

Repeat for the following compound: NS(=O)(=O)c1ccc2nc(NC(=O)COc3ccc(Cl)cc3)sc2c1 766

Data credit: the METLIN SMRT retention time set (Domingo-Almenara et al. 2019)
